Values were extracted from patent US9617212B2.

Target: Human MIF (MIF tautomerase) (Homo sapiens, UniProt P14174)
Construct: purchased ProSpec
Sequence (P14174 2-115 limits assumed): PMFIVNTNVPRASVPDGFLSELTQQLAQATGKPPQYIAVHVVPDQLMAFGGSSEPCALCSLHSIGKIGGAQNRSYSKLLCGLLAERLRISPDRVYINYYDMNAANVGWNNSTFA
Experiment: MIF Tautomerase Inhibitory Assay with L-Dopachrome Methyl Ester
Type: biochemical
Settings: relative potency class, MIF tautomerase inhibition; L-dopachrome methyl ester substrate, pH 7.34, no pre-incubation; read-out: IC50
IC50 reference

The following compounds have reported results that may help.
[[record]]
compound = "CC(C)(N)[C@H]1CC[C@H](CN2Cc3ccc(O)c(F)c3C2=O)CC1"
measured_metric = "IC50"
value = "< 1 µM"

[[record]]
compound = "CC(O)[C@H]1CC[C@H](CN2Cc3ccc(O)cc3C2=O)CC1 (some centres unmarked)"
measured_metric = "IC50"
value = "< 1 µM"

[[record]]
compound = "O=C1c2cc(O)ccc2CN1C[C@H]1CC[C@H](C(=O)N2CCOCC2)CC1"
measured_metric = "IC50"
value = "1 to 5 µM"

[[record]]
compound = "CC(N[C@H](CO)C(=O)O)C1CCC(CN2Cc3ccc(O)c(F)c3C2=O)CC1 (some centres unmarked)"
measured_metric = "IC50"
value = "< 1 µM"


// moving on: another record for IC50
Problem: Give the measured IC50 for CC(C)CNC(C)[C@H]1CC[C@H](CN2Cc3ccc(O)cc3C2=O)CC1 (some centres unmarked)
Result: 1 to 5 µM

---

Let's look at some compounds and their measured IC50.
Molecular target: Human MIF (MIF tautomerase) (Homo sapiens)
Construct: purchased ProSpec
Assay: MIF Tautomerase Inhibitory Assay with L-Dopachrome Methyl Ester
Assay type: biochemical
Conditions: relative potency class, MIF tautomerase inhibition; L-dopachrome methyl ester substrate, pH 7.34, no pre-incubation; read-out: IC50
Description: MIF Tautomerase Inhibitory Assay with L-Dopachrome Methyl Ester Assay Method (pH 7.34, 0.017-0.033% DMSO, 0.034% EtOH): A fresh stock solution of L-dopachrome methyl ester in MeOH was prepared at 55-65 mM through oxidation of L-3,4-dihydroxyphenylalanine methyl ester hydrochloride with sodium periodate according to the procedure described in WO9729635A1. […] The absorbance (A1) at 475 nm was then recorded for each sample every 2 s for 3 min. […]

Field: example entries. Status: answers known.
[[record]]
compound = "CC(OC(=O)c1ccccc1)[C@H]1CC[C@H](CN2Cc3ccc(O)c(F)c3C2=O)CC1 (some centres unmarked)"
measured_metric = "IC50"
value = "< 1000 nM"

[[record]]
compound = "CC(O)[C@H]1CC[C@H](CN2Cc3cc(F)c(O)cc3C2=O)CC1 (some centres unmarked)"
measured_metric = "IC50"
value = "< 1000 nM"

[[record]]
compound = "CC(N[C@H](C)C(=O)O)C1CCC(CN2Cc3ccc(O)c(F)c3C2=O)CC1 (some centres unmarked)"
measured_metric = "IC50"
value = "< 1000 nM"


Problem: With Human MIF (MIF tautomerase) (Homo sapiens) as the test system, provide measured IC50 for this compound: CC(NCCO)C1CCC(CN2Cc3ccc(O)c(F)c3C2=O)CC1 (centres unmarked)
Result: < 1000 nM

Problem: Please look at `COC(=O)CCCCN1Cc2ccc(O)cc2C1=O` and tell me its recorded IC50 on Human MIF (MIF tautomerase) (Homo sapiens).
Result: 1000 to 5000 nM

Problem: // fetch IC50 for `O=C1c2cc(O)ccc2CN1C[C@H]1CC[C@H](C(=O)N2CCCCC2)CC1` ; system: Human MIF (MIF tautomerase) (Homo sapiens)
Result: < 1000 nM

Problem: Give Human MIF (MIF tautomerase) (Homo sapiens) IC50 for the following compound: CC([C@H]1CC[C@H](CN2Cc3ccc(O)c(F)c3C2=O)CC1)N1CCOCC1 (some centres unmarked)
Result: < 1000 nM

Problem: GET IC50 | system: Human MIF (MIF tautomerase) (Homo sapiens) | item: CC(Oc1cccc(F)c1)[C@H]1CC[C@H](CN2Cc3cc(F)c(O)cc3C2=O)CC1 (mixture of isomers) [drawing 63]
Result: < 1000 nM

Problem: Please report IC50 with Human MIF (MIF tautomerase) (Homo sapiens) for item CC(N)[C@H]1CC[C@H](CN2Cc3cc(Cl)c(O)c(F)c3C2=O)CC1 (some centres unmarked) .
Result: 1000 to 5000 nM
